Data credit: ChEMBL document CHEMBL3885881

Species on record: Rattus norvegicus
Experiment: DrugMatrix - Regimen: Daily Repeat
Format: toxicity, organism-based, Sprague-Dawley
Design: regimen Daily Repeat, gender Male, age 6-8 weeks
Conditions: in vivo, po, 0 mg/kg, 72 h, tissue Blood, route oral GAVAGE, dose level Control, time 3 day, vehicle 100 % WATER
Measurement Label: NUCLEATED RED BLOOD CELLS

Reference set (2 entries):
CN(C)CC[C@@H](c1ccc(Cl)cc1)c1ccccn1; 0 /100WBC
CC(C)(C)CC(C)(C)c1ccc(OCCOCC[N+](C)(C)Cc2ccccc2)cc1.[Cl-] [BENZETHONIUM CHLORIDE]; 0.17 /100WBC

Read the next record carefully.
Query: Read off the recorded NUCLEATED RED BLOOD CELLS for CS(=O)(=O)c1ccc([C@@H](O)[C@@H](CO)NC(=O)C(Cl)Cl)cc1
Reply: 0 /100WBC

* * *

Overview of reported LYMPHOCYTE across a group of compounds:
Species on record: Rattus norvegicus
Assay: DrugMatrix - Regimen: Daily Repeat
Assay type: toxicity, organism-based, Sprague-Dawley
Parameters: regimen Daily Repeat, gender Male, age 6-8 weeks
Details: in vivo, po, 1500 mg/kg, 72 h, tissue Blood, route oral GAVAGE, dose level High, time 3 day, vehicle .5 % CMC
State just the number; it will be interpreted in %.

CC(C)=CCC/C(C)=C/CO [GERANIOL]; 92
COC(=O)Nc1nc2ccc([S+]([O-])c3ccccc3)cc2[nH]1 (stereo not given) [OXFENDAZOLE]; 91.67
O=c1cnn([C@@H]2O[C@H](CO)[C@@H](O)[C@H]2O)c(=O)[nH]1 [6-AZAURIDINE]; 96

Query: Read off the recorded LYMPHOCYTE for CN(C)[C@@H]1C(O)=C(C(N)=O)C(=O)[C@@]2(O)C(O)=C3C(=O)c4c(O)ccc(Cl)c4[C@@](C)(O)[C@H]3C[C@@H]12 [CHLORTETRACYCLINE]
Reply: 86

Query: Read off the recorded LYMPHOCYTE for CC(C)Oc1ccc2c(=O)c(-c3ccccc3)coc2c1 [IPRIFLAVONE]
Reply: 85

* * *

Overview of reported CHLORIDE across a group of compounds:
Organism: Rattus norvegicus
Experiment: DrugMatrix - Regimen: Daily Repeat
Format: toxicity, organism-based, Sprague-Dawley
Parameters: regimen Daily Repeat, gender Male, age 6-8 weeks
Details: in vivo, po, 0 mg/kg, 72 h, tissue Plasma, route oral GAVAGE, dose level Control, time 3 day, vehicle 100 % WATER
State just the number; it will be interpreted in MEQ/L.

O.O.O.O.O.O.[Cl-].[Cl-].[Sr+2] [STRONTIUM CHLORIDE HEXAHYDRATE]; 101.83
CN(C)CC[C@@H](c1ccc(Cl)cc1)c1ccccn1; 102.5

Query: Read off the recorded CHLORIDE for Cn1c(=O)c2[nH]cnc2n(C)c1=O.O
Reply: 99.83

Query: Read off the recorded CHLORIDE for CC(C)(C)CC(C)(C)c1ccc(OCCOCC[N+](C)(C)Cc2ccccc2)cc1.[Cl-] [BENZETHONIUM CHLORIDE]
Reply: 99.5

Query: Read off the recorded CHLORIDE for CC(C)NCC(O)c1ccc(NS(C)(=O)=O)cc1 (stereo not drawn)
Reply: 102.17

* * *

Organism: Rattus norvegicus
Assay: DrugMatrix - Regimen: Daily Repeat
Assay type: toxicity, organism-based, Sprague-Dawley
Set-up: regimen Daily Repeat, gender Male, age 6-8 weeks
Details: in vivo, po, 1500 mg/kg, 72 h, tissue Blood, route oral GAVAGE, dose level High, time 3 day, vehicle .5 % CMC
Measurement Label: NEUTROPHIL (%)
State just the number; it will be interpreted in %.

CC(C)Oc1ccc2c(=O)c(-c3ccccc3)coc2c1; 14.33

Query: Read off the recorded NEUTROPHIL for CC(C)=CCC/C(C)=C/CO
Reply: 7.67

Query: Read off the recorded NEUTROPHIL for COC(=O)Nc1nc2ccc([S+]([O-])c3ccccc3)cc2[nH]1 (stereo not given)
Reply: 6.67

Query: Read off the recorded NEUTROPHIL for O=c1cnn([C@@H]2O[C@H](CO)[C@@H](O)[C@H]2O)c(=O)[nH]1
Reply: 3.67

Query: Read off the recorded NEUTROPHIL for CN(C)[C@@H]1C(O)=C(C(N)=O)C(=O)[C@@]2(O)C(O)=C3C(=O)c4c(O)ccc(Cl)c4[C@@](C)(O)[C@H]3C[C@@H]12
Reply: 9.67
